Measured IC50, listed per entry for reference.
targetOrSystem: T1, E. coli-expressed recombinant det-1 tagged human IL-13 (human, UniProt P35225 35-146)
T1 construct: also called Det-1 tagged human IL-13 (made in-house); not shown: det-1 tag
T1 sequence (P35225 other isoform, or with tags, fused parts or gaps): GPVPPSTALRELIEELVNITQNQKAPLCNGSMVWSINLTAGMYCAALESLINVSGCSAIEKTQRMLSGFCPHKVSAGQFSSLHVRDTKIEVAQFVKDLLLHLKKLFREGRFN
experimentDescription: competition ELISA: inhibition of det-1 tagged human IL-13 binding to human IL-13Rα2-Fc
# unit: µg/mL | format: bare number

See these solved cases before continuing.
binder: monoclonal antibody 6A1 (antibody, IgG1, V domains shown, also called 6A1 parental mAb; parental mouse mAb 6A1) VH: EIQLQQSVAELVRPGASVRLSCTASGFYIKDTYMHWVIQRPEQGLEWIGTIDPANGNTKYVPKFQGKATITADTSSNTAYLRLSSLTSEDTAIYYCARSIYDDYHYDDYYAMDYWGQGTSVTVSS VL: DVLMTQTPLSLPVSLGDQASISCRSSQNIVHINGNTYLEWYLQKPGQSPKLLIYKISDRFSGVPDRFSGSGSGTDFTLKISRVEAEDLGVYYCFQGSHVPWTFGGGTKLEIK
IC50 (µg/mL): 0.02

binder: chimaeric 6A1 (antibody, human IgG1, V domains shown, Parent murine 6A1 V regions on human IgG1/k wild type C regions, expressed in CHO cells; also called 6A1c; 6A1 chimaeric antibody) VH: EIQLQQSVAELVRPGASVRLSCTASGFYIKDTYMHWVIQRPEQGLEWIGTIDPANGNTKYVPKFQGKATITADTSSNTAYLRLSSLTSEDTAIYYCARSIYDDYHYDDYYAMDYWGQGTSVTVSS VL: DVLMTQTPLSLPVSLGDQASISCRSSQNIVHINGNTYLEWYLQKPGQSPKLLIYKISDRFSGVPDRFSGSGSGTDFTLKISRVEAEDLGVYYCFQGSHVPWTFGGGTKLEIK
IC50 (µg/mL): 0.04

binder: L2+A1 (antibody, human IgG1, kappa, V domains shown, Humanised 6A1, VH construct A1 and VL construct L2; also called A1L2) VH: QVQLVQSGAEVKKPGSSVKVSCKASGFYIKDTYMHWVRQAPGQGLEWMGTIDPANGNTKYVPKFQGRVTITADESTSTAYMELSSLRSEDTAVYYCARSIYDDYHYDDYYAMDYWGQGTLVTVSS VL: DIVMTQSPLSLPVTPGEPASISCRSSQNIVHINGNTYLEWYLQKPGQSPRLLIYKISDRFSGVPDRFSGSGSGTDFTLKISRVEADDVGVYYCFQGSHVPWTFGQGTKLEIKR
IC50 (µg/mL): 0.117

Sample L1+A1 (antibody, human IgG1, kappa, V domains shown, Humanised 6A1, VH construct A1 and VL construct L1, human gamma1 wild type / kappa constant regions; also called A1L1; humanised anti-IL-13 mAb L1+A1) VH: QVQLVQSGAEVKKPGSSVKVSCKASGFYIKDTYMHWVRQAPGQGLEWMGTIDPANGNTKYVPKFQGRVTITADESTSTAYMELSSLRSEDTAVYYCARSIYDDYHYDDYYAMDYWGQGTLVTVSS VL: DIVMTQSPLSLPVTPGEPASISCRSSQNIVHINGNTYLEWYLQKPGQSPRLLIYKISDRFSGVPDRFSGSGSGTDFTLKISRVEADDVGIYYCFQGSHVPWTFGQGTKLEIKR — what was its IC50? 0.113

The reported numbers originate from patent US20110243928A1.
